B1: Hairpin Ribozyme (parent)
chain: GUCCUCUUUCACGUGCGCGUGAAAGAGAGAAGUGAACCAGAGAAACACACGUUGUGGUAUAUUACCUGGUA

# Variants of: B1
# protocol summary: self-cleavage, relative activity (ratio to wild type); higher = more cleavage; co-transcriptional
Record Y whenever self-cleavage is at 0.6 or higher; record N when lower.

Examples with answers:
mutation key | assigned category
U14A A59G | N
C3A C48A | N
A30C A49G | N

Turning now to a further variant:
# input In plain terms: is recorded self-cleavage at least 0.6 for C3U A28U ?
# output N
